tested.system: STAT3 SH2 domain (Homo sapiens)
Sequence (P40763 127-722 limits assumed): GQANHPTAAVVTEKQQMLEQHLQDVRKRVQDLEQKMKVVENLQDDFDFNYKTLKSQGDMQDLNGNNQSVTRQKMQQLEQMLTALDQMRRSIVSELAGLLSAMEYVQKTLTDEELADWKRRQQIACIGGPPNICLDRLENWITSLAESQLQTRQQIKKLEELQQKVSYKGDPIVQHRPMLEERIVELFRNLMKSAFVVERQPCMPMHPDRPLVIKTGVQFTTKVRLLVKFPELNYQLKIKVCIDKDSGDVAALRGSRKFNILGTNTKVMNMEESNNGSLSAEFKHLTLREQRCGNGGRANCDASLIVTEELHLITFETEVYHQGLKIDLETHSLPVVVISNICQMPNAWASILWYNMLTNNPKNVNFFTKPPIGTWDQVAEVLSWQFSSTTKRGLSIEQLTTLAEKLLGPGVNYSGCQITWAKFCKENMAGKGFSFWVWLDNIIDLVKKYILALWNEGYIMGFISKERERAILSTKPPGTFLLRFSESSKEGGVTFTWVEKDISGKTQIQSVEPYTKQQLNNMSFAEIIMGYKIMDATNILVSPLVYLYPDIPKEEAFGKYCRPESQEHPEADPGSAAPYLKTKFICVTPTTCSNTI
measured.property: IC50 (µM)
Give bare numbers, in µM.

Form: item CC1=CC(=O)C(C(C)C)=CC1=O [Thymoquinone, thymoquinone] ; test system STAT3 SH2 domain (Homo sapiens); IC50: 10.9

----------
tested.system: STAT1 SH2 domain (Homo sapiens, UniProt P42224)
Sequence (P42224 132-713): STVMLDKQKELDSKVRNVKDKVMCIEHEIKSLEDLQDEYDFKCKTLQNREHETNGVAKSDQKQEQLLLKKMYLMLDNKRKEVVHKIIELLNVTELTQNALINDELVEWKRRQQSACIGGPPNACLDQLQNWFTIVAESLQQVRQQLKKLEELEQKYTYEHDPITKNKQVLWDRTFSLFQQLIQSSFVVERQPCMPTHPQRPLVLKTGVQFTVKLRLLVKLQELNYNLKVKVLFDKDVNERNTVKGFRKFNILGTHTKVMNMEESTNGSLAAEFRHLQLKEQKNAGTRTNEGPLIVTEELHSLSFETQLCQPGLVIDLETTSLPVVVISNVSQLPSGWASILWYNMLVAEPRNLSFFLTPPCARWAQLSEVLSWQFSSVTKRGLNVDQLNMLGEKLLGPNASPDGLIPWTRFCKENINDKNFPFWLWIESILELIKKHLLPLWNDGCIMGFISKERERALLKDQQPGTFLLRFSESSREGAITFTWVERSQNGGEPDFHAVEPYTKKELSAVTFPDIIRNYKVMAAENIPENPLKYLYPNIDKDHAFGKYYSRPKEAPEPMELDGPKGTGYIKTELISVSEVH
method: Fluorescence polarization specificity assay, STAT1 SH2 domain
Type: binding
run.conditions: STAT1 120 nM; incubation with inhibitor 1 hr at 22 °C prior to addition of fluorophore-labeled peptide; read-out: apparent IC50
pIC50: −log10 of the molar value.
measured.property: pIC50

Case CC1=CC(=O)C(C(C)C)=CC1=NOC(=O)c1ccccc1C , STAT1 SH2 domain (Homo sapiens, UniProt P42224), pIC50 recorded as < 3.26

----------
tested.system: Lck SH2 domain (Homo sapiens)
Sequence (P06239 127-224): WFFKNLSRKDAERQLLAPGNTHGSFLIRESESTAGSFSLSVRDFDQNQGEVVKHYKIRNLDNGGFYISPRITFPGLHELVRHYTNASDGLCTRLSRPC
method: Fluorescence polarization specificity assay, Lck SH2 domain
Assay type: binding
Description: DNA sequences coding for human Plk1 amino acids 326-603, human Plk2 amino acids 355-685, and human Plk3 amino acids 335-646 comprising the respective polo-box domains were amplified by PCR from plasmid DNA (Plk1) or placenta cDNA (Plk2, Plk3) and cloned into a modified pET28a (Plk1) or a modified pQE70 vector (Plk2 and Plk3). […]
measured.property: IC50

Measured IC50 for this entry CC1=CC(=O)C(C(C)C)=CC1=O on Lck SH2 domain (Homo sapiens): > 5 mM

----------
tested.system: Lck SH2 domain (Homo sapiens)
method: Fluorescence polarization specificity assay, Lck SH2 domain
Type: binding
run.conditions: Lck 40 nM; incubation with inhibitor 1 hr at 22 °C prior to addition of fluorophore-labeled peptide; read-out: apparent IC50
measured.property: IC50

Given item CC1=CC(=O)C(C(C)C)=CC1=NOC(=O)c1ccccc1C , the value recorded as its IC50 is > 5 mM

----------
tested.system: Plk2 PBD (Homo sapiens)
Sequence (Q9NYY3 355-685): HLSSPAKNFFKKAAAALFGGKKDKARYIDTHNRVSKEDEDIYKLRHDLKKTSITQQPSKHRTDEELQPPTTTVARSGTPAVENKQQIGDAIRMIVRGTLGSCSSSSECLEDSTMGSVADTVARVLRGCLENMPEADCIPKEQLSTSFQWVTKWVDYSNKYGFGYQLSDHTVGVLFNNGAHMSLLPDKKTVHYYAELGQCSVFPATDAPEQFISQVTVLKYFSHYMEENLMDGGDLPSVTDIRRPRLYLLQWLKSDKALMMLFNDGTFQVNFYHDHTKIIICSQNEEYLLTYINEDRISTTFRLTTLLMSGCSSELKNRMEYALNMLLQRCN
measured.property: pIC50
One number for each entry, as −log10 of the molar value.

Kindly note the recorded pIC50 for CC1=CC(=O)C(C(C)C)=CC1=O , which is 5.72

----------
tested.system: Pin1 WW domain (Homo sapiens)
Sequence (Q13526 1-162): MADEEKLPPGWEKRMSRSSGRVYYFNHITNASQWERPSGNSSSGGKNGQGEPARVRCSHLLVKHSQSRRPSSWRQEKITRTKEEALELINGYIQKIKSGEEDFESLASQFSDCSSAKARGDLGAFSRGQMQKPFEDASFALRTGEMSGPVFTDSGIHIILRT
measured.property: pIC50
Answers are plain numbers, as −log10 of the molar value.

For this compound ( CC1=CC(=O)C(C(C)C)=CC1=O ), measured pIC50 is 4.69

----------
tested.system: Plk3 PBD (Homo sapiens, UniProt Q9H4B4)
Sequence (Q9H4B4 335-646): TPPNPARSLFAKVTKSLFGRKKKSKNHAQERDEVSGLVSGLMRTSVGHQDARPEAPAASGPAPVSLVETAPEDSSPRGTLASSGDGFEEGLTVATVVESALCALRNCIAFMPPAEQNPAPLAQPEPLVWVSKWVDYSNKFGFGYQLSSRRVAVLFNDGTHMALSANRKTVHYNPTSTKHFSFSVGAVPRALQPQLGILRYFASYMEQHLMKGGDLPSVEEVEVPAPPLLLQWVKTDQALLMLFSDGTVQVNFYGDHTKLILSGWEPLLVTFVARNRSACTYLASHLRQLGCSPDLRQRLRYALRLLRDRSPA
measured.property: pIC50
Give bare numbers, as −log10 of the molar value.

The measured pIC50 that CC1=CC(=O)C(C(C)C)=CC1=O showed for Plk3 PBD (Homo sapiens, UniProt Q9H4B4) is 4.65

----------
tested.system: STAT5 SH2 domain (Homo sapiens, UniProt P51692)
Construct: made in house
Sequence (P51692 136-703 limits assumed): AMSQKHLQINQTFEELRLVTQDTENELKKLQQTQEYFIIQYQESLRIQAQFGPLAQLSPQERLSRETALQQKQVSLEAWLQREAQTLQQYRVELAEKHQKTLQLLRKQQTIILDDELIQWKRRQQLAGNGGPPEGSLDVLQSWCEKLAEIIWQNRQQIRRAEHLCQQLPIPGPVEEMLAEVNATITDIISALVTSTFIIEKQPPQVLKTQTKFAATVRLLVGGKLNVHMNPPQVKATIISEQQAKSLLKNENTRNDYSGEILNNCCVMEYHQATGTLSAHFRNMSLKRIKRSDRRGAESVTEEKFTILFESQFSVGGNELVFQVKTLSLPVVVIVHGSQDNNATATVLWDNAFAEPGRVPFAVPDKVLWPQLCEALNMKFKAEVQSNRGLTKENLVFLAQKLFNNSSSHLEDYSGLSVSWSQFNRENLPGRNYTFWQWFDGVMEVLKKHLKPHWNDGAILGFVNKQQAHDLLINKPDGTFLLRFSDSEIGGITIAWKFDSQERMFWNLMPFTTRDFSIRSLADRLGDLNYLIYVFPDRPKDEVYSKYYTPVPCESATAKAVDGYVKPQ
method: Fluorescence polarization specificity assay, STAT5 SH2 domain
Type: binding
run.conditions: STAT5b 110 nM; incubation with inhibitor 1 hr at 22 °C prior to addition of fluorophore-labeled peptide; value in mM; read-out: apparent IC50
measured.property: IC50

So for CC1=CC(=O)C(C(C)C)=CC1=NOC(=O)c1ccccc1C , the logged IC50 turned out to be > 1 mM
